Species: Rattus norvegicus
protocol text: Open TG-GATES - Regimen: Daily Repeat
Type: toxicity, organism-based, Sprague-Dawley
Set-up: regimen Daily Repeat, gender Male, age 6 weeks
condition notes: in vivo, po, 0 mg/kg, 72 h, tissue Blood, route gavage, dose level Control, time 3 day

molecule	Bas [%]
Brc1ccccc1 [BROMOBENZENE]	0
CN1C(=O)CCS(=O)(=O)C1c1ccc(Cl)cc1 (stereo not drawn) [CHLORMEZANONE]	0
NC1=NC(=O)C(c2ccccc2)O1 (stereo not drawn) [PEMOLINE]	0
CCCc1cc(=O)[nH]c(=S)[nH]1 [PROPYLTHIOURACIL]	0
Nc1c2c(nc3ccccc13)CCCC2 [TACRINE]	0
O=C(OC[C@H]1O[C@@H](OC(=O)c2cc(O)c(O)c(OC(=O)c3cc(O)c(O)c(O)c3)c2)[C@H](OC(=O)c2cc(O)c(O)c(OC(=O)c3cc(O)c(O)c(O)c3)c2)[C@@H](OC(=O)c2cc(O)c(O)c(OC(=O)c3cc(O)c(O)c(O)c3)c2)[C@@H]1OC(=O)c1cc(O)c(O)c(OC(=O)c2cc(O)c(O)c(O)c2)c1)c1cc(O)c(O)c(OC(=O)c2cc(O)c(O)c(O)c2)c1 [TANNIC ACID]	0
CN/C(=N/CCSCc1nc[nH]c1C)NC#N [CIMETIDINE]	0.4
COC(=O)C1=C(C)NC(C)=C(C(=O)OC)C1c1ccccc1[N+](=O)[O-] [NIFEDIPINE]	0.4
CNC(=C[N+](=O)[O-])NCCSCc1ccc(CN(C)C)o1 [RANITIDINE]	0
CC(C)NNC(=O)c1ccncc1 [IPRONIAZID]	0
CN(C)CCC(c1ccc(Cl)cc1)c1ccccn1 (stereo not drawn) [CHLORPHENIRAMINE]	0
CCOc1ccc(NC(C)=O)cc1 [PHENACETIN]	0
Cc1nnc2n1-c1ccc(Cl)cc1C(c1ccccc1Cl)=NC2 [TRIAZOLAM]	0

====

Species: Rattus norvegicus
protocol text: Open TG-GATES - Regimen: Daily Repeat
Assay type: toxicity, organism-based, Sprague-Dawley
Parameters: regimen Daily Repeat, gender Male, age 6 weeks
condition notes: in vivo, po, 300 mg/kg, 72 h, tissue Kidney, route gavage, dose level Middle, time 3 day
measured attribute: KIDNEY_R (g)

molecule	measured attribute	test result
CN/C(=N/CCSCc1nc[nH]c1C)NC#N	KIDNEY_R	1
CNC(=C[N+](=O)[O-])NCCSCc1ccc(CN(C)C)o1	KIDNEY_R	1
O=C(OC[C@H]1O[C@@H](OC(=O)c2cc(O)c(O)c(OC(=O)c3cc(O)c(O)c(O)c3)c2)[C@H](OC(=O)c2cc(O)c(O)c(OC(=O)c3cc(O)c(O)c(O)c3)c2)[C@@H](OC(=O)c2cc(O)c(O)c(OC(=O)c3cc(O)c(O)c(O)c3)c2)[C@@H]1OC(=O)c1cc(O)c(O)c(OC(=O)c2cc(O)c(O)c(O)c2)c1)c1cc(O)c(O)c(OC(=O)c2cc(O)c(O)c(O)c2)c1	KIDNEY_R	1
Cc1nnc2n1-c1ccc(Cl)cc1C(c1ccccc1Cl)=NC2	KIDNEY_R	1
COC(=O)C1=C(C)NC(C)=C(C(=O)OC)C1c1ccccc1[N+](=O)[O-]	KIDNEY_R	0.9
CCOc1ccc(NC(C)=O)cc1	KIDNEY_R	1

====

Species on record: Rattus norvegicus
protocol text: Open TG-GATES - Regimen: Single
Assay type: toxicity, organism-based, Sprague-Dawley
Set-up: regimen Single, gender Male, age 6 weeks
condition notes: in vivo, po, 0 mg/kg, 24 h, tissue Blood, route gavage, dose level Control
measured attribute: Plat (x10_4/uL)

compound	test result
CNC(=C[N+](=O)[O-])NCCSCc1ccc(CN(C)C)o1	130.4
CN(C)CCC(c1ccc(Cl)cc1)c1ccccn1 (stereo not drawn)	116.5
COC(=O)C1=C(C)NC(C)=C(C(=O)OC)C1c1ccccc1[N+](=O)[O-]	118.4

====

Organism: Rattus norvegicus
protocol text: Open TG-GATES - Regimen: Single
Format: toxicity, organism-based, Sprague-Dawley
Parameters: regimen Single, gender Male, age 6 weeks
condition notes: in vivo, po, 0 mg/kg, 6 h, tissue Liver, route gavage, dose level Control
Criterion: LIVER strictly under 9 g. Met: true. Not met: false.

compound	label
CN(C)CCC(c1ccc(Cl)cc1)c1ccccn1 (stereo unspecified)	true
CNC(=C[N+](=O)[O-])NCCSCc1ccc(CN(C)C)o1	false
CN1C(=O)CCS(=O)(=O)C1c1ccc(Cl)cc1 (stereo unspecified)	false
CS(=O)(=O)O.Cc1ccc(NC(=O)c2ccc(CN3CCN(C)CC3)cc2)cc1Nc1nccc(-c2cccnc2)n1 [IMATINIB MESYLATE]	true
COC(=O)C1=C(C)NC(C)=C(C(=O)OC)C1c1ccccc1[N+](=O)[O-]	true

====

Species: Rattus norvegicus
protocol text: Open TG-GATES - Regimen: Single
Format: toxicity, organism-based, Sprague-Dawley
Design: regimen Single, gender Male, age 6 weeks
condition notes: in vivo, po, 1000 mg/kg, 3 h, tissue Blood, route gavage, dose level High

molecule	Ret
CN/C(=N/CCSCc1nc[nH]c1C)NC#N	7.9%
COC(=O)C1=C(C)NC(C)=C(C(=O)OC)C1c1ccccc1[N+](=O)[O-]	9.7%
O=C(OC[C@H]1O[C@@H](OC(=O)c2cc(O)c(O)c(OC(=O)c3cc(O)c(O)c(O)c3)c2)[C@H](OC(=O)c2cc(O)c(O)c(OC(=O)c3cc(O)c(O)c(O)c3)c2)[C@@H](OC(=O)c2cc(O)c(O)c(OC(=O)c3cc(O)c(O)c(O)c3)c2)[C@@H]1OC(=O)c1cc(O)c(O)c(OC(=O)c2cc(O)c(O)c(O)c2)c1)c1cc(O)c(O)c(OC(=O)c2cc(O)c(O)c(O)c2)c1	10.3%
CNC(=C[N+](=O)[O-])NCCSCc1ccc(CN(C)C)o1	7.1%
Cc1nnc2n1-c1ccc(Cl)cc1C(c1ccccc1Cl)=NC2	9.1%

====

Species: Rattus norvegicus
protocol text: Open TG-GATES - Regimen: Daily Repeat
Format: toxicity, organism-based, Sprague-Dawley
Design: regimen Daily Repeat, gender Male, age 6 weeks
condition notes: in vivo, po, 0 mg/kg, […], tissue Plasma, route gavage, dose level Control, time 14 day
Measured ALT, listed per entry.
measured attribute: ALT (IU/L)

compound	test result
CN(C)CCC(c1ccc(Cl)cc1)c1ccccn1 (stereo not drawn) [CHLORPHENIRAMINE]	38.2
COC(=O)C1=C(C)NC(C)=C(C(=O)OC)C1c1ccccc1[N+](=O)[O-] [NIFEDIPINE]	41.8
CN1C(=O)CCS(=O)(=O)C1c1ccc(Cl)cc1 (stereo not drawn) [CHLORMEZANONE]	48
CC(C)NNC(=O)c1ccncc1 [IPRONIAZID]	35.8
NC1=NC(=O)C(c2ccccc2)O1 (stereo not drawn) [PEMOLINE]	46.2
CCCc1cc(=O)[nH]c(=S)[nH]1 [PROPYLTHIOURACIL]	30
CN/C(=N/CCSCc1nc[nH]c1C)NC#N [CIMETIDINE]	41.4
Nc1c2c(nc3ccccc13)CCCC2 [TACRINE]	40
O=C(OC[C@H]1O[C@@H](OC(=O)c2cc(O)c(O)c(OC(=O)c3cc(O)c(O)c(O)c3)c2)[C@H](OC(=O)c2cc(O)c(O)c(OC(=O)c3cc(O)c(O)c(O)c3)c2)[C@@H](OC(=O)c2cc(O)c(O)c(OC(=O)c3cc(O)c(O)c(O)c3)c2)[C@@H]1OC(=O)c1cc(O)c(O)c(OC(=O)c2cc(O)c(O)c(O)c2)c1)c1cc(O)c(O)c(OC(=O)c2cc(O)c(O)c(O)c2)c1 [TANNIC ACID]	31.2
Brc1ccccc1 [BROMOBENZENE]	39.2
CNC(=C[N+](=O)[O-])NCCSCc1ccc(CN(C)C)o1 [RANITIDINE]	38.2
Cc1nnc2n1-c1ccc(Cl)cc1C(c1ccccc1Cl)=NC2 [TRIAZOLAM]	46
CCOc1ccc(NC(C)=O)cc1 [PHENACETIN]	36.4

====

Measured IP, listed per entry.
Species: Rattus norvegicus
protocol text: Open TG-GATES - Regimen: Daily Repeat
Type: toxicity, organism-based, Sprague-Dawley
Design: regimen Daily Repeat, gender Male, age 6 weeks
condition notes: in vivo, po, 1000 mg/kg, 72 h, tissue Plasma, route gavage, dose level High, time 3 day

molecule	IP
O=C(OC[C@H]1O[C@@H](OC(=O)c2cc(O)c(O)c(OC(=O)c3cc(O)c(O)c(O)c3)c2)[C@H](OC(=O)c2cc(O)c(O)c(OC(=O)c3cc(O)c(O)c(O)c3)c2)[C@@H](OC(=O)c2cc(O)c(O)c(OC(=O)c3cc(O)c(O)c(O)c3)c2)[C@@H]1OC(=O)c1cc(O)c(O)c(OC(=O)c2cc(O)c(O)c(O)c2)c1)c1cc(O)c(O)c(OC(=O)c2cc(O)c(O)c(O)c2)c1 [TANNIC ACID]	7.9 mg/dL
CN/C(=N/CCSCc1nc[nH]c1C)NC#N [CIMETIDINE]	7 mg/dL
COC(=O)C1=C(C)NC(C)=C(C(=O)OC)C1c1ccccc1[N+](=O)[O-] [NIFEDIPINE]	6.1 mg/dL
Cc1nnc2n1-c1ccc(Cl)cc1C(c1ccccc1Cl)=NC2 [TRIAZOLAM]	9.1 mg/dL
CNC(=C[N+](=O)[O-])NCCSCc1ccc(CN(C)C)o1 [RANITIDINE]	8 mg/dL
CCOc1ccc(NC(C)=O)cc1 [PHENACETIN]	6.3 mg/dL
